Numbers sourced from patent US12233161B1.

- MEASUREMENT PROTOCOL: Particle size and PDI of nucleic acid lipid nanoparticle preparations by dynamic light scattering
- Format: physicochemical
- TEST CONTEXT: DMG-PEG2000:DSPC:Chol:Lipid 1.40:11.15:38.95:48.50, N/P 30, mRNA LNP
- Experimental: The 7.5 μL nucleic acid lipid nanoparticle solution (containing approximately 0.04 mg/mL mRNA) was taken and added with 200 μL ultrapure water, mixed by gentle blowing using a pipette tip, and the particle size of the nanopreparation was detected by dynamic lightscattering (DLS) using a Malvern Dynamic Light Scattering Instrument (Malvern Instruments Ltd., ZEN3700, UK). […]

MOLECULE	PDI
CCCCCCCCCCCCNC(=O)C(O)CN(CCCCN(C)CCCCN(CC(O)C(=O)NCCCCCCCCCCCC)CC(O)C(=O)NCCCCCCCCCCCC)CC(O)C(=O)NCCCCCCCCCCCC (stereo not drawn) [Compound L0283]	0.12
CCCCCCOCOCCCCCCOC(=O)C(O)CN(C)CCN(C)CCN(C)CC(O)C(=O)OCCCCCCOCOCCCCCC (stereo not drawn) [Compound L0279]	0.23
CCCCCCCCCCCCNC(=O)C(O)CN(CCCN(CCO)CCCN(CC(O)C(=O)NCCCCCCCCCCCC)CC(O)C(=O)NCCCCCCCCCCCC)CC(O)C(=O)NCCCCCCCCCCCC (stereo not drawn) [Compound L0281]	0.13
CCCCCCCCCCCCOC(=O)C(O)CN(C)CCN(C)CCN(C)CC(O)C(=O)OCCCCCCCCCCCC (stereo not drawn) [Compound L0276]	0.23
CCCCCCC(CCCCCC)C(=O)OCCCCCCOC(=O)C(O)CN(C)CCN(C)CCN(C)CC(O)C(=O)OCCCCCCOC(=O)C(CCCCCC)CCCCCC (stereo not drawn) [Compound L0286]	0.16
CCCCCCCCCCCCNC(=O)C(O)CN(CCCN(CCCCO)CCCN(CC(O)C(=O)NCCCCCCCCCCCC)CC(O)C(=O)NCCCCCCCCCCCC)CC(O)C(=O)NCCCCCCCCCCCC (stereo not drawn) [Compound L0282]	0.15

###

- Tested on: mice
- MEASUREMENT PROTOCOL: In vivo delivery of FLuc-mRNA lipid nanoparticles in mice, in vivo imaging (IVIS)
- TEST CONTEXT: Fluc-mRNA LNP; route IV; organ: lung; formulation, molar ratio and N/P as in the table
METRIC: IVIS

COMPOUND	READOUT VALUE
CCCCCCCCC(CCCCCC)C(=O)OCCCCNC(=O)C(O)CN(CCCN(C)CCCN(CC(O)C(=O)NCCCCOC(=O)C(CCCCCC)CCCCCCCC)CC(O)C(=O)NCCCCOC(=O)C(CCCCCC)CCCCCCCC)CC(O)C(=O)NCCCCOC(=O)C(CCCCCC)CCCCCCCC (stereo not shown)	2.32E+07
CCCCCCCC(CCCCCCC)OC(=O)CCCNC(=O)C(O)CN(CCCN(CC(O)C(=O)NCCCC(=O)OC(CCCCCCC)CCCCCCC)CC(O)C(=O)NCCCC(=O)OC(CCCCCCC)CCCCCCC)CCCN(CC(O)C(=O)NCCCC(=O)OC(CCCCCCC)CCCCCCC)CC(O)C(=O)NCCCC(=O)OC(CCCCCCC)CCCCCCC (stereo not shown)	1.09E+06
CCCCCCCCC(CCCCCC)C(=O)OCCCCCCNC(=O)C(O)CN(CCN(C)CCN(CC(O)C(=O)NCCCCCCOC(=O)C(CCCCCC)CCCCCCCC)CC(O)C(=O)NCCCCCCOC(=O)C(CCCCCC)CCCCCCCC)CC(O)C(=O)NCCCCCCOC(=O)C(CCCCCC)CCCCCCCC (stereo not shown)	2.62E+06
CCCCCCC(CCCCC)C(=O)OCCCCNC(=O)C(O)CN(CCCN(C)CCCCN(CCC(O)C(=O)NCCOC(=O)C(CCCCCC)CCCCCC)C(O)C(=O)NCCCCOC(=O)C(CCCCCC)CCCCCC)CC(O)C(=O)NCCCCOC(=O)C(CCCCC)CCCCCC (stereo not shown)	4.47E+07
